# SYSTEM UNDER TEST: human CLEC-2 (hFc-CLEC-2) (Homo sapiens)
# Sequence (Q9P126 55-229 limits assumed): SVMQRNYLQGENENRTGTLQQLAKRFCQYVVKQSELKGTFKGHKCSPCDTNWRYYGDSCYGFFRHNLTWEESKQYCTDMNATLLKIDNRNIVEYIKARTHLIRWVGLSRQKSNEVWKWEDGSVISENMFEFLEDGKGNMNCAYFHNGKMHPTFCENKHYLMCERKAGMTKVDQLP
pKd: −log10 of the molar value.
TEST READOUT: pKd

{"MOLECULE": "C=CC1=C(C)C2=Cc3c(C=C)c(C)c4[n]3[Fe]([Cl])[n]3c(c(C)c(CCC(=O)O)c3=CC3=NC(=C4)C(C)=C3CCC(=O)O)=CC1=N2 [hemin]", "TEST READOUT": "pKd", "EXPERIMENTAL VALUE": "~6.70"}

====

# SYSTEM UNDER TEST: UniProtKB Q9JL99
# Sequence (Q9JL99 53-229 limits assumed): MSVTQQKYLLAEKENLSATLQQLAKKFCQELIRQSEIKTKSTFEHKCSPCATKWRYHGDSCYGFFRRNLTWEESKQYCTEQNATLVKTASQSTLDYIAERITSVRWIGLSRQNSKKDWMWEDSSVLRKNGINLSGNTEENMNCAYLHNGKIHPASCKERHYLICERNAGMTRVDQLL
TEST READOUT: Kd

{"COMPOUND": "C=CC1=C(C)C2=Cc3c(C=C)c(C)c4[n]3[Fe]([Cl])[n]3c(c(C)c(CCC(=O)O)c3=CC3=NC(=C4)C(C)=C3CCC(=O)O)=CC1=N2 [hemin]", "SYSTEM UNDER TEST": "UniProtKB Q9JL99", "TEST READOUT": "Kd", "EXPERIMENTAL VALUE": "~200 nM"}
